Catalogue of self-cleavage kobs at 640 uM GlcN6P readings, one per entry.
B1: glmS ribozyme (parent)
chain: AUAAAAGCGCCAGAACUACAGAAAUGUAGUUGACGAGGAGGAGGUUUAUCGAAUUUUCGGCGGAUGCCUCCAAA

variants of: B1; experiment: self-cleavage kobs at 640 uM GlcN6P; higher = faster cleavage; RNA array; settings: with glucosamine-6-phosphate
Fewer inactive variants are shown than the library holds.
value_kind: self-cleavage kobs at 640 uM GlcN6P

> print(dat)
          variant.identifier  measured.value
 1                 U56G C71G    0.000271 s⁻¹
 2       C11G U31A U47C C61G     < 1e-05 s⁻¹
 3                 U31A G32U    6.96e-05 s⁻¹
 4            U49C U65C U69A     < 1e-05 s⁻¹
 5            A12C G32A U54G    2.31e-05 s⁻¹
 6             G9U G29C U30C     < 1e-05 s⁻¹
 7       A12G U45G A52U C61G     < 1e-05 s⁻¹
 8                 G32U G62U     < 1e-05 s⁻¹
 9            A39U A42G G60U     < 1e-05 s⁻¹
10                 A48U G59A     < 1e-05 s⁻¹
11                 A33C A48C     < 1e-05 s⁻¹
12  A15G A39C C61U G63C C68G     < 1e-05 s⁻¹
13  A14G U54C G60C A64G C70G     < 1e-05 s⁻¹
14                   A6C C8G     < 1e-05 s⁻¹
15            G32U C50G C71G    0.000151 s⁻¹
16            G41C C50G G51C     < 1e-05 s⁻¹
17                 G35C C61G     < 1e-05 s⁻¹
18                 A39C A42C    3.24e-05 s⁻¹
19                 U31A G59C     < 1e-05 s⁻¹
20                 G41C U49A     < 1e-05 s⁻¹
21                  G7A A52C     < 1e-05 s⁻¹
22                 U49C G66C     < 1e-05 s⁻¹
